For each record, write down the corresponding composite z-score.
Molecular target: Focal adhesion kinase 1 (Homo sapiens)
Experiment: PTK2 protein binding on printed compound slides – biochemical, small-molecule microarray, 635/667 nm fluorescence, BSA, DTT, primary screen (AID 1130);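 note: composite of spot emission at 667 nm and signal to noise over triplicate slides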
Conditions: 635 nm fluorescence, higher = more signal
Number only, please.

input: Provide only the value of recorded composite z-score for `C=C[C@H](OC)[C@@H](OC(=O)Nc1ccc(SC)cc1)c1ccc(OCCO)cc1`
output: 0.39

input: Provide only the value of recorded composite z-score for `C=C(COC)C(=O)CC[C@@H](OC(=O)c1ccccc1-c1ccccc1C(=O)O)c1ccc(CO)o1`
output: 0.0109

input: Provide only the value of recorded composite z-score for `O=C1O[C@@H](c2ccccc2)[C@@H](c2ccccc2)N2[C@@H](c3ccc(O)cc3)[C@]3(C(=O)Nc4ccccc43)[C@@H](C(=O)NC[C@H](O)c3ccccc3)[C@H]12`
output: 0.0943

input: Provide only the value of recorded composite z-score for `COCCCNC(=O)[C@@]1(C)c2ccccc2C(=O)N(Cc2ccccc2)[C@H]1c1ccc(CO)cc1`
output: 0.101

input: Provide only the value of recorded composite z-score for `O=C1C[C@@](C(=O)O)(c2ccc([N+](=O)[O-])cc2)[C@@H](c2ccc(CO)cc2I)N1CC12CC3CC(CC(C3)C1)C2`
output: 0.365

input: Provide only the value of recorded composite z-score for `C=CC[C@@]1(C(=O)OC)N=C(c2ccc(OCCCO)cc2)O[C@@H]1c1ccccc1CN=[N+]=[N-]`
output: 0.242

input: Provide only the value of recorded composite z-score for `CO[C@H]1O[C@H](CO)[C@@H](OC(=O)Nc2cccc(F)c2)[C@H](OC(=O)Nc2ccccc2-c2ccccc2)[C@@H]1OC(=O)Nc1ccccc1-c1ccccc1`
output: 0.797

input: Provide only the value of recorded composite z-score for O=C1C2C=CC(C(O)c3ccccn3)N(Nc3ccccc3F)C2C(=O)N1c1ccccc1 (configuration not stated)
output: 1.27

input: Provide only the value of recorded composite z-score for `COC(=O)c1nc2oc1CC[C@@H](CO)NC(=O)N(C)Cc1cn(nn1)C[C@H](Cc1ccccc1)NC2=O`
output: -0.242

input: Provide only the value of recorded composite z-score for `O=C1C[C@@](C(=O)O)(c2ccc([N+](=O)[O-])cc2)[C@@H](c2ccc(CO)cc2I)N1C1CCCCC1`
output: 0.113

input: Provide only the value of recorded composite z-score for CC(C)C(CO)N1C(=O)[C@@H]2[C@H]3C(=O)OCC=C[C@H]3OC23C=CCN(c2ccc4ccccc4c2)C(=O)[C@@H]13 (some centres not stated)
output: -0.493

input: Provide only the value of recorded composite z-score for `CC(C)C(=C=CC[C@H](O)c1ccccc1OCCO)CCO`
output: 0.101

====

For each record, write down the corresponding composite z-score.
Test system: Wnt5a (protein binding on small-molecule microarray)
Assay: small molecules binding Wnt5a protein – biophysical, small-molecule microarray, 635/667 nm fluorescence, primary screen (AID 1142);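 note: fluorescence read at 667 nm with signal to noise per printed feature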
Conditions: 635 nm fluorescence, higher = more signal

input: Provide only the value of recorded composite z-score for `[N-]=[N+]=Nc1ccccc1[C@@H]1OC(c2ccc(OCCCO)cc2)=N[C@]1(CCS(=O)(=O)c1ccccc1)C(=O)N1CCCCC1`
output: 0.626

input: Provide only the value of recorded composite z-score for `CCCC[C@@H]1C[C@H]1[C@@H](NC(=O)c1ccccc1)c1ccc(-c2ccccc2)cc1`
output: -0.0558

input: Provide only the value of recorded composite z-score for `COc1ccc([Si](C)(C)[C@H]2[C@H](CCO)O[C@@]3(C(=O)N(Cc4ccccc4)c4ccc(N5C(=O)COc6ccccc65)cc43)[C@@H]2C)cc1`
output: 0.19

input: Provide only the value of recorded composite z-score for `C[N+](C)(C)CCCC[C@@H]1NC(=O)[C@@H]2C[C@H](C(=O)NCCCCCCNC(=O)CS)[C@H](c3cccc(OCCO)c3)N2C1=O`
output: -0.326

input: Provide only the value of recorded composite z-score for COc1cc(NN2C(C(O)c3ccccc3)C=CC3C(=O)N(c4ccccc4)C(=O)C32)cc(OC)c1OC (stereo unspecified)
output: 0.421

input: Provide only the value of recorded composite z-score for `CC(C)CNC(=O)[C@@]1(C)c2ccccc2C(=O)N(C(C)C)[C@H]1c1ccc(CO)cc1`
output: -0.16

input: Provide only the value of recorded composite z-score for `CCCCC(=C=CC[C@H](O)c1ccccc1OCCO)C[C@H](O)c1cc(Cl)cc(Cl)c1O`
output: 0.121

input: Provide only the value of recorded composite z-score for CN1C(=O)C2C(C1=O)C1C=C(c3ccc(CO)cc3)C2C(C2CC2)N1Cc1sc2ccccc2c1Cl (stereo unspecified)
output: 0.567

input: Provide only the value of recorded composite z-score for `COC(=O)[C@@]1(Cc2ccc(F)cc2)[C@H]2c3cc(C(=O)N(C)C)n(CCCNc4ccc(C(F)(F)F)cc4Cl)c3C[C@H]2CN1C(=O)c1ccccc1`
output: 0.72

input: Provide only the value of recorded composite z-score for `C=CCNC(=O)[C@@H]1[C@H]2C(=O)O[C@H](c3ccccc3)[C@H](c3ccccc3)N2[C@H](c2ccccc2OCCO)[C@@]12C(=O)N(C(=O)OCCOC)c1ccc(C#CCC(C(=O)OC)C(=O)OC)cc12`
output: 0.978

input: Provide only the value of recorded composite z-score for `C=C(CCCC)/C(=C/C[C@H](OC(C)=O)c1ccc(CO)o1)c1cc(C(=O)OC)ccc1OC`
output: 0.244

====

For each record, write down the corresponding composite z-score.
Test: small molecules captured by biotinylated probe aFGF10 – biochemical, small-molecule microarray, fluorescence 635/667, stem cell growth factor project, primary screen (AID 1071);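 note: score merges 667 nm spot intensity and signal to noise from triplicate slides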
Conditions: higher = more signal
Number only, please.

input: Provide only the value of recorded composite z-score for `CC(C)C(=C=CC[C@H](O)c1ccccc1OCCO)CCO`
output: 0.161

input: Provide only the value of recorded composite z-score for `[N-]=[N+]=Nc1ccccc1[C@@H]1OC(c2ccc(OCCCO)cc2)=N[C@]1(CCS(=O)(=O)c1ccccc1)C(=O)N1CCCCC1`
output: 0.77

input: Provide only the value of recorded composite z-score for `COCCCNC(=O)[C@]1(Cc2ccccc2N=[N+]=[N-])N=C(c2ccc(OCCCO)cc2)O[C@@H]1c1ccccc1CN=[N+]=[N-]`
output: 1.05

input: Provide only the value of recorded composite z-score for `CC(=O)NCCCC[C@@H]1NC(=O)[C@@H]2C[C@H](C(=O)NCCCCCC[N+](C)(C)C)[C@H](c3cccc(OCCO)c3)N2C1=O`
output: 0.498

====

Assay: probe aEGFR binding to arrayed compounds – biochemical, biotinylated probe, 635/667 nm fluorescence, primary screen (AID 1097);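 note: probe is a biotinylated anti-EGFR antibody binding compounds printed on slides; score combines fluorescence near 667 nm and signal to noise of each spot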
Settings: small-molecule microarray, higher = more signal
# composite z-score >= -0.07 gives True, anything below gives False

input: Does the molecule `C=C(COC)C(=O)CC[C@@H](OC(=O)c1ccccc1-c1ccccc1C(=O)O)c1ccc(CO)o1` have recorded composite z-score that is -0.07 or more?
output: True

input: Does the molecule `C=C(COC)/C(=C/C[C@H](OC(C)=O)c1ccccc1OCCO)c1cnc2ccccc2c1` have recorded composite z-score that is -0.07 or more?
output: True

input: Does the molecule `COc1ccc(C(=O)Nc2cccc(CN3C(=O)[C@@]4(O[C@@H](CCn5cc([C@H](O)c6ccccc6)nn5)[C@H]([Si](C)(C)c5ccc(OC)cc5)[C@H]4C)c4ccccc43)c2)cc1` have recorded composite z-score that is -0.07 or more?
output: False

input: Does the molecule `COC(=O)[C@@]1(Cc2ccc(OC)cc2)[C@H]2c3cc(C(=O)N(C)C)n(CCSCCO)c3C[C@H]2CN1C(=O)c1ccccc1` have recorded composite z-score that is -0.07 or more?
output: True

input: Does the molecule `C=C(/C(=C/C[C@@H](OC(C)=O)c1ccc(CO)o1)c1cnc2ccccc2c1)C(C)C` have recorded composite z-score that is -0.07 or more?
output: True

input: Does the molecule C=CCC(OC(C)=O)[C@@H]1[C@@H](N(Cc2ccc(-c3cccc(C(F)(F)F)c3)o2)C(=O)Cc2ccc(OC)cc2)c2cc(OCCCO)ccc2N1C(=O)Cc1ccc(OC)cc1 (some centres undefined) have recorded composite z-score that is -0.07 or more?
output: False

input: Does the molecule `C=CCOC(=O)[C@H]1[C@@H]2C(=O)O[C@@H](c3ccccc3)[C@@H](c3ccccc3)N2[C@@H](c2ccc(OCCOC(=O)[C@H]3C[C@H]4C(=O)N[C@@H](CCCC[N+](C)(C)C)C(=O)N4[C@H]3c3ccc(O)cc3)cc2)[C@]12C(=O)Nc1ccccc12` have recorded composite z-score that is -0.07 or more?
output: False

input: Does the molecule `OCCCc1cc[n+](Cc2cccc(OC(F)(F)F)c2)cc1` have recorded composite z-score that is -0.07 or more?
output: True

input: Does the molecule CCN(CC)c1ccc(N2CC=CC34O[C@@H]5C=CCOC(=O)[C@@H]5[C@H]3C(=O)N(CCCCCO)[C@@H]4C2=O)cc1 (some centres undefined) have recorded composite z-score that is -0.07 or more?
output: False

input: Does the molecule CN1C(=O)C2C(C1=O)C1C=C(c3ccc(CO)cc3)C2C(C2CC2)N1Cc1cc2c(cc1Br)OCO2 (centres undefined) have recorded composite z-score that is -0.07 or more?
output: True

input: Does the molecule `C[N+](C)(C)CCCC[C@@H]1NC(=O)[C@H]2C[C@@H](C(=O)O)[C@@H](c3cccc(OCCO)c3)N2C1=O` have recorded composite z-score that is -0.07 or more?
output: True

input: Does the molecule `O=S(=O)(NCCCO)c1ccc(Br)cc1` have recorded composite z-score that is -0.07 or more?
output: True

input: Does the molecule `O=C1C[C@@](C(=O)O)(c2ccc([N+](=O)[O-])cc2)[C@@H](c2ccc(CO)cc2I)N1CC12CC3CC(CC(C3)C1)C2` have recorded composite z-score that is -0.07 or more?
output: True

input: Does the molecule `NC(=O)NCC#Cc1ccc2c(c1)[C@]1(C(=O)N2)[C@H](c2ccccc2OCCO)N2[C@H](c3ccccc3)[C@H](c3ccccc3)OC(=O)[C@H]2[C@@H]1C(=O)N1CCCCCCC1` have recorded composite z-score that is -0.07 or more?
output: True

input: Does the molecule C[C@H]1C2[C@H](Cc3ccccc3)NC(=O)[C@]23C(=O)N[C@H](Cc2ccccc2)C(=O)N[C@H](Cc2ccccc2)C(=O)NC/C=C/CCC/C=C/C3[C@@H]2O[C@]12C (some centres undefined) have recorded composite z-score that is -0.07 or more?
output: False

input: Does the molecule `CN(C)CCCC[C@@H]1NC(=O)[C@@H]2C[C@H](C(=O)NCc3ccc(F)cc3)[C@H](c3cccc(OCCO)c3)N2C1=O` have recorded composite z-score that is -0.07 or more?
output: False

input: Does the molecule `Cc1ccc(S[C@]2(C(=O)NCCN3CCOCC3)CC(=O)N(C3CCCCC3)[C@@H]2c2ccc(CO)cc2)cc1` have recorded composite z-score that is -0.07 or more?
output: False

input: Does the molecule O=P(NCC1(CC2(c3ccccc3)CO2)CC1)(c1ccccc1)c1ccccc1 (centres undefined) have recorded composite z-score that is -0.07 or more?
output: False

Values were extracted from PubChem BioAssay.
